# testDetails: plasma protein binding, rat
# Assay type: in vitro ADME
measureName: fraction unbound

smilesString: Cc1cccc(/C=N/Nc2cc(N3CCOCC3)nc(OCCc3ccccn3)n2)c1
experimentalResult: < 0.01

----------
# testDetails: plasma protein binding, dog
# Format: in vitro ADME
# testConditions: read-out: bound to plasma proteins
measureName: fraction unbound

smilesString: Cc1cccc(/C=N/Nc2cc(N3CCOCC3)nc(OCCc3ccccn3)n2)c1
experimentalResult: < 0.01
